Origin of the recorded values: a melting point compilation (Tetko et al.; mined from patent text by program, amines drawn as free bases though some values may be those of a salt)

melting point values by entry

Examples from the recorded data:
CCCN(Cc1ccc(-c2ccccc2C(=N)NO)cc1)c1nc2ccccc2cc1C(=O)OCC    61 to 67 °C
CCOC(=O)c1cc(-c2ccncc2)c(C(F)(F)F)nc1N    121 to 125 °C
COc1ccc(Cn2ncnc2CN2C(=O)c3ccccc3C2=O)cc1    167 to 172 °C
O=C(O)CN1Cc2ccccc2CC(NC(=O)OCC2c3ccccc3-c3ccccc32)C1=O (configuration not stated)    117 to 120 °C
Cn1ncnc1COc1nc2c(cnn2-c2ccccc2)c2ccccc12    149 to 151 °C

Inquiry: Recorded melting point for N#CC(CCOc1ccc(Br)cc1)c1ccc(Cl)cc1Cl (configuration not stated) , please?
Reply text: 73.9 °C

Inquiry: Recorded melting point for CC(C)n1nc(-c2sc(C(=O)N3CCOCC3)nc2-c2ccccc2)ccc1=O , please?
Reply text: 162 °C

Inquiry: Recorded melting point for CSc1cc(-c2ccccc2)nc(-c2cccc(C(F)(F)F)c2)c1 , please?
Reply text: 79.1 °C

Inquiry: Recorded melting point for CCOCCCN(C)Cc1ccc(NC(=O)C2=Cc3cc(-c4ccc(C)cc4)ccc3OCC2)cc1 , please?
Reply text: 119 to 122 °C

Inquiry: Recorded melting point for COc1ccc(C(=O)c2cccc3c2CCC3C#N)cc1 (configuration not stated) , please?
Reply text: 109 to 112 °C

Inquiry: Recorded melting point for COc1ccc2c(c1)Sc1c(cc(OC)c(O)c1Br)N2 , please?
Reply text: 185 °C

Inquiry: Recorded melting point for COc1ccc(OCc2nc(N)c3nccnc3n2)cc1 , please?
Reply text: 238 to 240 °C

Inquiry: Recorded melting point for CNC(=O)[C@@H](NC(=O)[C@H](CC(=O)O)CC(C)C)C(C)(C)C , please?
Reply text: 204 to 205 °C

Inquiry: Recorded melting point for O=C(c1cccs1)c1cnn2c(-c3ccc(Cl)nc3)ccnc12 , please?
Reply text: 145 to 148 °C

Inquiry: Recorded melting point for CCn1nc(NC(=O)NS(=O)(=O)c2ccccc2C(=O)OC)nc1SC , please?
Reply text: 188 to 191 °C

Inquiry: Recorded melting point for COc1ccc(-n2c(-c3ccc(SC)cc3)nc(SC)c(C#N)c2=O)cc1 , please?
Reply text: 214 to 216 °C

----------
recorded-endpoint: melting point

Cc1cc(C(F)(C(F)(F)F)C(F)(F)F)ccc1NC(=O)c1ccnc(Cl)c1C(=O)NC(C)C    275 to 277 °C
O=C(Nc1cnc(-c2ccccc2)nc1C(=O)O)OCc1ccc(-c2ccccc2)cc1    173 °C
O=C(O)c1cnn2c(C(F)F)cc(-c3ccc(OC(F)(F)F)cc3)nc12    231 °C
Cc1cc(C2=NOC(c3cc(Cl)cc(Cl)c3)(C(F)(F)F)C2)ccc1C(=O)NC(N)=O (stereo unspecified)    201 to 205 °C
Cc1nc2c(OCc3ccccc3)cc(Br)cc2n1C    177 to 179 °C

Kindly consider the entry below.
Inquiry: Recorded melting point for CCC[C@H]1CC[C@H](OC(=O)c2ccc(OCC)c(F)c2F)CC1 , please?
Reply text: 93 °C

----------
melting point values by entry

Examples from the recorded data:
CC(=O)N1CCc2cc3c(cc21)C(=O)C(=O)N3    > 250 °C
O=C1CCC(C(=O)O)C1 (stereo unspecified)    59 to 60.5 °C
Cc1cc(C)c(NC(=O)CN2CCN(CCSc3nc4ccccc4o3)CC2)c(C)n1    159 to 160 °C
CCCCOc1ccc(-c2ccc3c(c2)C=C(C(=O)OC)CCS3(=O)=O)cc1    123 to 125 °C
O=C(c1cccs1)c1cnn2c(-c3cccc(OC4CCCC4)c3)ccnc12    135 to 138 °C

Inquiry: Recorded melting point for Cc1ccccc1NC(=O)C(Cl)Cl , please?
Reply text: 192 to 195 °C

Inquiry: Recorded melting point for O=C1OC(COc2ccccc2)CN1CCO (stereo unspecified) , please?
Reply text: 89 to 91 °C

Inquiry: Recorded melting point for CCCOc1ccc(S(=O)(=O)N2CCN(CCOC(C)=O)CC2)cc1-c1nc2c(CCC)cn(CC)c2c(=O)[nH]1 , please?
Reply text: 139 to 140 °C

Inquiry: Recorded melting point for CCOCCNC(=O)c1cc2c(nc(C)n2C)c2c1CCC1(Cc3ccccc3C1)N2 , please?
Reply text: 180 to 181 °C

Inquiry: Recorded melting point for CCOc1nc2cc(Cl)c(Cl)cc2nc1N , please?
Reply text: 191 to 193 °C

Inquiry: Recorded melting point for CCC(N)=C(C(C)=O)C(=O)N(CCN(C)C)c1ccccc1 , please?
Reply text: 103 to 105 °C
